System: K4 kissing-loop RNA reporter;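 further: bound reporter read as fluorescence of individual clusters on recovered sequencing chips by microscopy, with normalized cluster intensities fitted with a binding model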
ASSAY SUMMARY: apparent KD of K4 kissing-loop reporter; higher = weaker reporter binding
CONDITION DETAILS: Eterna round: R107; input ligand: theophylline 20 uM
Please map values of apparent KD of K4 kissing-loop reporter to classes as shown: I = under 200 nM, II = from 200 nM up to 500 nM, III = 500 nM and over

Illustrative cases are given below, each with its answer.
CHAIN SEQUENCE: GCAGGACGAGGAGGAGGAUGAAUUACUGAAGGAGCGCAUAUUUUUGCAGGUAGGUCGCGGUAAACAAGUAUAGUGAUGUUAUAUC [SSArgA.N]
ASSIGNED LABEL: II
--
CHAIN SEQUENCE: CACUUACGUAGUGAUGUUACGAUCUCUGAUACCAGACAACUCUAAGUCCCUUGGCAGCAGUCAUUUUGCUUAGUAUUUACUCAAA [JR_ExcTheophyA_Sub016]
ASSIGNED LABEL: III
--
CHAIN SEQUENCE: AAGGGCUAGGCGGCCGCCACUGGUCGUGUACACAUACGAACCAGUGAUGUUGGUAUUGUAUGCGACAGGACCGGGCCUAGCCGAA [Exclusion - Tryptophan B (Freestyle 27)]
ASSIGNED LABEL: II
--
CHAIN SEQUENCE: UAUGUACACGGGUAGUUGUACAUCGAGGAAGGAGCGUGCGCAGGCACAGGUAGGUCGCCUCAGCGCACGAGUGAUGUUCGUGGGC [Xexegeus]
ASSIGNED LABEL: II

Enquiry: Class (by measured apparent KD of K4 kissing-loop reporter) for UUGAGCCUGACGUAAGUCAGGCUCUGCGAGCGAGGACCGGUACGGCCGCCACUCGGUGCAGUGAUGUUGCAUGGCCGCAAGGCCG [#2 Exclusion - Tryptophan A Attempt #15 (HarryS)]
Return: II

Enquiry: Class (by measured apparent KD of K4 kissing-loop reporter) for AUAUAAGUCGGAGGAUAUCCAGUGAUGUUAUGUUGUGAUGUUUAGUGAUGUUAGGCAUCAGUGAAGGGAGAAGGCCGUAAGUGAU [APPLE]
Return: I

Enquiry: Class (by measured apparent KD of K4 kissing-loop reporter) for GGAUCCACCAGUGAUGUUGGAGAAAACUCCAAGGAUAUGACGAAAGUCAGAAGGUGGUAGACUGGGCAAAGUCCGGUCGGAUCCA [FmnA10 G66]
Return: I

Enquiry: Class (by measured apparent KD of K4 kissing-loop reporter) for `ACGCUAGCUACCGAAAGGUAGCUAGCGAGUGAGGAUAUGUGGAAACACAGAAGGCACAGCACAGUGAUGUUGUGCGGCGAAAGCC`
Return: III

Enquiry: Class (by measured apparent KD of K4 kissing-loop reporter) for AGUGAAGUUAGUGAUGUGUGAGUUUGGGAAGGAGCGCCGAGGAAGGCAGGUAGGUCGCCCAGUGAUGUUGGUGUAAGGAUGAGAG [whbob_Ex_Arginine_A_2t123]
Return: II

Enquiry: Class (by measured apparent KD of K4 kissing-loop reporter) for AAGUCAUAUAGAAGGAGCGUGUUUUAUAAUUUAUUUUCAUGAUCGAGUGAUGUUCGAUAUACACAGGUAGGUCGCUGUAUAAUAA [hbob_SS_Arginine_B_2t140]
Return: I

Enquiry: Class (by measured apparent KD of K4 kissing-loop reporter) for UUUGGAAGCGGUGUUGAUUAGGGAGCGGAAGGAGCGCCGAUUAUGGCAGGUAGGUCGCCGGAAUGUAGUGAUGUUGCAUAGAGGG [ExArgA.W]
Return: II

Enquiry: Class (by measured apparent KD of K4 kissing-loop reporter) for AAAUAAAUCGGAGGAUAUCCUUCCCACGUCGAAGUACCGUGCUUGAUGGAGUGAUGUUCGAUCAGAGGAGAAGGCCGAUAAAUAA [Same State FMN B GF20]
Return: III

* * *

Provide the recorded apparent KD of MS2 coat protein for the entries that follow.
Tested on: MS2 coat protein
ASSAY SUMMARY: apparent KD of MS2 coat protein; designed switch direction (-1 OFF switch, 1 ON switch): 1; higher = weaker reporter binding
CONDITION DETAILS: input ligand: none
Form field: result (number plus unit)

CHAIN SEQUENCE: ACAUGAGACCUAGGAUAUUUUGUACCUACAUGUGACAUGAGGAUCACCCAUGUGGUAAGUAUGAGAAAGAAGGAGGAGAUAUGU [Equivalence 21 - Jieux - Same State NG 2] (Eterna round: R96, puzzle: Same State NG 2)
READOUT VALUE: 36.7 nM
--
CHAIN SEQUENCE: UCGGGCGUACUUGCUGACAUGAGGAUCACCCAUGUAAAUGGGAAGGAUAUGGUACCGUUUCGGUACCAGAAGGUCCUGGGUGCU [salish99_SSNG3_r04_309] (Eterna round: R96, puzzle: Same State NG 3)
READOUT VALUE: 3840 nM
--
CHAIN SEQUENCE: GCUCGUAUGAUGACCGACAUGAGGAUCACCCAUGUGUGUCGGUAGGAUAUCUAUAUUAAGGAUAUAGAGAAGGGCCCAACGAGC [SameState NG3 #18] (Eterna round: R96, puzzle: Same State NG 3)
READOUT VALUE: 158 nM

// batch mode: one apparent KD of MS2 coat protein value per listed entry
1. ACAUGAGGCGCAGGAUAUACAGUUGUAUAACAUGAGGACAUGACAUGAGGAUCACCCAUGUCCCAGUAGAAGGGCGAACAUGAG [Same State NG2 S2] (Eterna round: R96, puzzle: Same State NG 2)
2. GUAGCAUACCGAGGAUAUUCUACAUGAGGAUCACCCAUGUUUAAUAGGCCACAUUAGUGGCCUUGGGAGAAGGCGGAAUGCUAC [Xeonanis - 20 Mod47] (Eterna round: R96, puzzle: Same State NG 2)
3. GUAGCAUACCGAGGAUAUUCAUAAACAUGAGGAUCACCCAUGUAGGCCAGCAUUAGCUGGCCUUGGGAGAAGGCGGAAUGCUAC [Xeonanis - 20 Mod51] (Eterna round: R96, puzzle: Same State NG 2)
4. UGGCUCAGAGCAGGAUAUAUGUCUCGAGCUUCGGCUCGAGACAUGAGGAUCACCCAUGUAAUAACAUAGAAGGGCUCUGAGCCU [SSNG2/1-B3] (Eterna round: R96, puzzle: Same State NG 2)
5. AUUACUAACAUAGGAUAUCAUGCGAAAAUUGCGUGAGAAGGGUGGACGCUGUCAUUCACGGAAGACAUGAGGAUCACCCAUGUC [SameState NG1 #73] (Eterna round: R96, puzzle: Same State NG 1)
6. AUUGCUAUCACAGGAUAUCAUGCGGAAAUCGCGUGAGAAGGGUGGACUCUGUCAUUCACGGAGGACAUGAGGAUCACCCAUGUC [SS NG10LRO17] (Eterna round: R96, puzzle: Same State NG 1)
7. AUCCCAUCGGGAGGAUAUGGAACCUUAUUGGUUCUAGAAGGUCCAACAUGAGGAUCACCCAUGUGGGAGUGGUCUAAUGACCAC [SS NG10LRO01] (Eterna round: R96, puzzle: Same State NG 1)
8. UUCUCAUUUACAUGAGGAUCACCCAUGUUUUUUUGUCGGAAAUAGGAUAUAGGUCUCUCGUUUUACUAGAAGGAUUUCCUUAUU [JR_SSNG3_Sub089] (Eterna round: R96, puzzle: Same State NG 3)

Return:
1. 144 nM
2. 19.8 nM
3. 77.4 nM
4. 53.3 nM
5. 119 nM
6. 36.3 nM
7. 414 nM
8. 58.9 nM

* * *

Provide the recorded apparent KD of MS2 coat protein for the entries that follow.
System: MS2 coat protein
ASSAY SUMMARY: apparent KD of MS2 coat protein; higher = weaker reporter binding
CONDITION DETAILS: Eterna round: R107; input ligand: arginine 13.2 mM
Numbers only, in nM.

See these solved cases before continuing.
CHAIN SEQUENCE: ACACAUGAGGAUCACCCAUGUUCAAUAGAUACCAGUGAUACGGUGCACCCUUGGCAGCUGUUGCUGAGUGAUGGUUCCCUCGGUA [#23 SameState-TheophyllineA]
apparent KD of MS2 coat protein, nM: 28.1
--
CHAIN SEQUENCE: GGCCCUGCGAGCGCUCGCAGGGCCGCGGAUACCAGCGAGGUCCAUCGCCCUUGGCAGCCGAACAUGAGGAUCACCCAUGUCGGUA [#1 Same State - Theophylline A Attempt #13 (HarryS)]
apparent KD of MS2 coat protein, nM: 7.87
--
CHAIN SEQUENCE: AAAAUAGAAGGAAGACAAAUAGAUACAGAAGGAGCGUAGGAAACUACAGGUAGGUCGCUGGAAAACAUGAGGAUCACCCAUGUAG [SSArg A #22 Slice of Pi Skeleton]
apparent KD of MS2 coat protein, nM: 31.5

// batch mode: one apparent KD of MS2 coat protein value per listed entry
1. CACGAAAGAUCGGCCGCCACUAUUUGAUGUGUUCUUUCACAUGAGGAUCACCCAUGUUCUUAUUUUAGGACCGGGAUUGAGCGUG [ETB #2]
2. GGUGGCUGGACUGAUACCAGCCACCACCGAUAGACCACAUGAGGAUCACCCAUGUUGGGUGGCCCUUGGCAGCAGUCCAGCUGCC [#1 Same State - Theophylline B Attempt #10 (HarryS)]
3. UCGUGCAGAGCGGCCGCCACUGUAUUGCGUGCGGAUGACGGAACAUGAGGAUCACCCAUGUUGUUUAGGACCGGGCUUGCCACCA ['xmullin]
4. UCGCUCUGGGUGAGAUCCGGAGAUAUGGAAGGAGCGCUGAUUCCAGCAGGUAGGUCGCCAACGGACAUGAGGAUCACCCAUGUAC [Same State - Arginine A (Freestyle 11)]

Return:
1. 72.7
2. 152
3. 12.4
4. 36.6
